Test system: MCF7
Experiment: antiproliferative activity, solid tumor cell line
Assay type: cell-based
Conditions: Homo sapiens; MCF7, Breast
Method: Example 2. The Anti-Cancer Activity of ASN002 was Also Evaluated in Many Solid Tumor Cell Lines.
value_kind: IC50 (nM)

>>> observed_measurement("N#CCC1CCN(c2nc(Nc3ccc(N4CCC(O)CC4)cc3)c3c(=O)[nH]ncc3n2)CC1 [ASN002]")
600

----------
System: Colo205
Test: antiproliferative activity, solid tumor cell line
Type: cell-based
Conditions: Homo sapiens, COLO 205; Colo205, Colon
pIC50: −log10 of the molar value.
value_kind: pIC50

>>> observed_measurement("N#CCC1CCN(c2nc(Nc3ccc(N4CCC(O)CC4)cc3)c3c(=O)[nH]ncc3n2)CC1 [ASN002]")
6.21

----------
Tested on: A549
Experiment: antiproliferative activity, solid tumor cell line
Type: cell-based
Details: Homo sapiens; A549, Lung
pIC50: −log10 of the molar value.
value_kind: pIC50

>>> observed_measurement("N#CCC1CCN(c2nc(Nc3ccc(N4CCC(O)CC4)cc3)c3c(=O)[nH]ncc3n2)CC1")
6.34

----------
Tested on: JEG3
Assay: antiproliferative activity, solid tumor cell line
Format: cell-based
Settings: Homo sapiens, JEG-3; JEG3, Placenta
value_kind: IC50

>>> observed_measurement("N#CCC1CCN(c2nc(Nc3ccc(N4CCC(O)CC4)cc3)c3c(=O)[nH]ncc3n2)CC1")
"> 10 µM"

----------
Tested on: 5637
Assay: antiproliferative activity, solid tumor cell line
Type: cell-based
Details: 5637, Bladder
Method: Example 2. The Anti-Cancer Activity of ASN002 was Also Evaluated in Many Solid Tumor Cell Lines.
pIC50: −log10 of the molar value.
value_kind: pIC50

>>> observed_measurement("N#CCC1CCN(c2nc(Nc3ccc(N4CCC(O)CC4)cc3)c3c(=O)[nH]ncc3n2)CC1 [ASN002]")
6.38

----------
Test system: BxPC3
Assay: antiproliferative activity, solid tumor cell line
Format: cell-based
Settings: Homo sapiens, BXPC-3; BxPC3, Pancreas
value_kind: IC50 (µM)

>>> observed_measurement("N#CCC1CCN(c2nc(Nc3ccc(N4CCC(O)CC4)cc3)c3c(=O)[nH]ncc3n2)CC1")
0.66

----------
System: SW480
Test: antiproliferative activity, solid tumor cell line
Assay type: cell-based
Settings: Homo sapiens; SW480, Colon
value_kind: IC50 (nM)

>>> observed_measurement("N#CCC1CCN(c2nc(Nc3ccc(N4CCC(O)CC4)cc3)c3c(=O)[nH]ncc3n2)CC1")
600

----------
Test system: SCaBER
Experiment: antiproliferative activity, solid tumor cell line
Format: cell-based
Details: Homo sapiens, Bladder
value_kind: IC50 (nM)

>>> observed_measurement("N#CCC1CCN(c2nc(Nc3ccc(N4CCC(O)CC4)cc3)c3c(=O)[nH]ncc3n2)CC1")
450

----------
Tested on: HCC1806
Experiment: antiproliferative activity, solid tumor cell line
Assay type: cell-based
Settings: Homo sapiens; HCC1806, Breast
pIC50: −log10 of the molar value.
value_kind: pIC50

>>> observed_measurement("N#CCC1CCN(c2nc(Nc3ccc(N4CCC(O)CC4)cc3)c3c(=O)[nH]ncc3n2)CC1")
5.79

----------
Tested on: Caki1
Test: antiproliferative activity, solid tumor cell line
Type: cell-based
Details: Homo sapiens, CAKI-1; Caki1, Kidney
pIC50: −log10 of the molar value.
value_kind: pIC50

>>> observed_measurement("N#CCC1CCN(c2nc(Nc3ccc(N4CCC(O)CC4)cc3)c3c(=O)[nH]ncc3n2)CC1")
6.48

Origin of the recorded values: patent US20190070182A1
